Reference for the values: patent US12612410B2

Test system: MOLM14 (D835Y) cells
experimentalProtocol: Combination drug screening with Venetoclax in MOLM14 (D835Y) cells
Format: cell-based
Parameters: key: negative = synergy, positive = antagonism with Venetoclax; relative score
testSettings: combination with Venetoclax, 10 × 10 dataset, 48 hours
Recorded Sum Excess HSA, one value per entry.
property: Sum Excess HSA

INSERT INTO assay_data (compound, property, observedvalue) VALUES
  ('O=C1NCCN1c1cn2c(-c3cccc(N[C@H]4CNCC[C@@H]4F)n3)cnc2cn1', 'Sum Excess HSA', '−550.9'),
  ('O=C1CCCN1c1cn2c(-c3cccc(N[C@H]4CNCC[C@@H]4F)n3)cnc2cn1', 'Sum Excess HSA', '−762'),
  ('F[C@H]1CCNC[C@@H]1Nc1cccc(-c2cnc3cnc(C4CC4)cn23)n1', 'Sum Excess HSA', '−644.5'),
  ('CC(O)(c1cn2c(-c3cccc(N[C@H]4CNCC[C@@H]4F)n3)cnc2cn1)C(F)(F)F (single isomer, unassigned) [Compound 82]', 'Sum Excess HSA', '−155.8');

====

system: IRAK4 (Homo sapiens)
Sequence (Q9NWZ3 whole entry): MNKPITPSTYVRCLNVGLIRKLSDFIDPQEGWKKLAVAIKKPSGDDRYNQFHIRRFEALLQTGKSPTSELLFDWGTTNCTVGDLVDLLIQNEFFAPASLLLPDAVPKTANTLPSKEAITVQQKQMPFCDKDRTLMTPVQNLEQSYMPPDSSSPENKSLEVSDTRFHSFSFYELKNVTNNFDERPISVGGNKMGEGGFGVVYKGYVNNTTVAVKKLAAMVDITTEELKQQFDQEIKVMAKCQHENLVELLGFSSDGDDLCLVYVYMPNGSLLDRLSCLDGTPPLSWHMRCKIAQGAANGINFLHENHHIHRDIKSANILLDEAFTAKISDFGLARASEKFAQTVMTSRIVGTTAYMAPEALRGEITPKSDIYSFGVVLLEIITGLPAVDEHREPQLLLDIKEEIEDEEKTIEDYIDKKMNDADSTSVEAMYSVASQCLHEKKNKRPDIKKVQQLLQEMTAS
experimentalProtocol: RBC HotSpot Kinase Assay, IRAK4
Format: biochemical
Set-up: purchased Reaction Biology (RBC), HotSpot kinase assay
testSettings: isolated kinase, 33P-ATP
pIC50: −log10 of the molar value.
Use met when the recorded pIC50 is no lower than 8; use not met when it is lower.

INSERT INTO measurements (molecule, classlabel) VALUES
  ('CC1(C)CC(=O)N(c2cn3c(-c4cccc(N[C@H]5CNC[C@@H]5F)n4)cnc3cn2)C1 [Compound 63]', 'not met'),
  ('C[C@H]1CNC[C@@H]1Nc1cccc(-c2cnc3cnc(C(C)(C)O)cn23)n1 [Compound 29]', 'met'),
  ('CC(C)(O)c1cn2c(-c3cccc(N[C@H]4CNC[C@@H]4F)n3)cnc2cn1 [Compound 28]', 'met'),
  ('CC(O)(c1cn2c(-c3cccc(N[C@H]4CNCC[C@@H]4F)n3)cnc2cn1)C(F)(F)F (single isomer, unassigned) [Compound 82]', 'met'),
  ('O=C1CC2(COC2)CN1c1cn2c(-c3cccc(N[C@H]4CNC[C@@H]4F)n3)cnc2cn1 [compound 62]', 'not met'),
  ('CC(O)(c1cn2c(-c3nc(N[C@@H]4CCCNC4)c(F)cc3F)cnc2cn1)C(F)(F)F (single isomer, unassigned) [Compound 89]', 'met'),
  ('CC(C)(C)c1cn2c(-c3cccc(N[C@H]4CNCC[C@@H]4F)n3)cnc2cn1 [Compound 130]', 'met'),
  ('O=S1(=O)CCCN1c1cn2c(-c3nc(N[C@@H]4CCCNC4)c(F)cc3F)cnc2cn1 [Compound 104]', 'met'),
  ('CC(C)(C)c1cn2c(-c3cc(F)cc(N[C@@H]4CCCNC4)n3)cnc2cn1 [Compound 123]', 'not met'),
  ('c1cc(N[C@H]2CNCC23CC3)nc(-c2cnc3cnccn23)c1 [Compound 71]', 'met'),
  ('CC(C)(C)c1cn2c(-c3cccc(N[C@H]4CNC[C@@H]4F)n3)cnc2cn1 [Compound 128]', 'met'),
  ('F[C@H]1CNC[C@@H]1Nc1cccc(-c2cnc3cnc(C4(C(F)(F)F)CC4)cn23)n1 [Compound 8]', 'met'),
  ('C[C@H]1C[C@@H](Nc2cccc(-c3cnc4cnc(OCC(F)(F)F)cn34)n2)CCN1 [Compound 42]', 'not met'),
  ('CC(O)(c1cn2c(-c3cccc(N[C@H]4CNC[C@@H]4F)n3)cnc2cn1)C(F)(F)F (single isomer, unassigned) [Compound 78]', 'met'),
  ('CC1(c2cn3c(-c4cccc(N[C@@H]5CCCNC5)n4)cnc3cn2)CC1 [Compound 2]', 'met'),
  ('F[C@H]1CNC[C@@H]1Nc1cccc(-c2cnc3cnc(C4CC4)cn23)n1 [Compound 50]', 'met'),
  ('CC(O)(c1cn2c(-c3cc(F)cc(N[C@@H]4CCCNC4)n3)cnc2cn1)C(F)(F)F (single isomer, unassigned) [Compound 87]', 'met'),
  ('FC(F)c1cn2c(-c3cccc(N[C@H]4CNC[C@@H]4F)n3)cnc2cn1 [Compound 16]', 'met'),
  ('F[C@H]1CNCC[C@@H]1Nc1cccc(-c2cnc3cnc(OCC(F)(F)F)cn23)n1 [Compound 41]', 'not met'),
  ('FC(F)COc1cn2c(-c3cccc(N[C@H]4CNCC[C@@H]4F)n3)cnc2cn1 [compound 76]', 'met'),
  ('CC(O)(c1cn2c(-c3nc(N[C@H]4CNCC[C@@H]4F)c(F)cc3F)cnc2cn1)C(F)(F)F (single isomer, unassigned) [Compound 92]', 'met'),
  ('CC(O)(c1cn2c(-c3cc(F)cc(N[C@H]4CNCC[C@@H]4F)n3)cnc2cn1)C(F)(F)F (single isomer, unassigned) [Compound 86]', 'not met'),
  ('C[C@H]1CNC[C@@H]1Nc1cccc(-c2cnc3cnccn23)n1 [Compound 73]', 'met'),
  ('CC(C)(C)c1cn2c(-c3nc(N[C@@H]4CCCNC4)c(F)cc3F)cnc2cn1 [Compound 126]', 'met'),
  ('FC(F)c1cn2c(-c3cccc(N[C@H]4CNCC45CC5)n3)cnc2cn1 [Compound 20]', 'met'),
  ('FC(F)(F)C1(c2cn3c(-c4cccc(N[C@@H]5CCNC5)n4)cnc3cn2)CC1 [Compound 10]', 'met');

====

system: IRAK1 (Homo sapiens, UniProt P51617)
Sequence (P51617 whole entry): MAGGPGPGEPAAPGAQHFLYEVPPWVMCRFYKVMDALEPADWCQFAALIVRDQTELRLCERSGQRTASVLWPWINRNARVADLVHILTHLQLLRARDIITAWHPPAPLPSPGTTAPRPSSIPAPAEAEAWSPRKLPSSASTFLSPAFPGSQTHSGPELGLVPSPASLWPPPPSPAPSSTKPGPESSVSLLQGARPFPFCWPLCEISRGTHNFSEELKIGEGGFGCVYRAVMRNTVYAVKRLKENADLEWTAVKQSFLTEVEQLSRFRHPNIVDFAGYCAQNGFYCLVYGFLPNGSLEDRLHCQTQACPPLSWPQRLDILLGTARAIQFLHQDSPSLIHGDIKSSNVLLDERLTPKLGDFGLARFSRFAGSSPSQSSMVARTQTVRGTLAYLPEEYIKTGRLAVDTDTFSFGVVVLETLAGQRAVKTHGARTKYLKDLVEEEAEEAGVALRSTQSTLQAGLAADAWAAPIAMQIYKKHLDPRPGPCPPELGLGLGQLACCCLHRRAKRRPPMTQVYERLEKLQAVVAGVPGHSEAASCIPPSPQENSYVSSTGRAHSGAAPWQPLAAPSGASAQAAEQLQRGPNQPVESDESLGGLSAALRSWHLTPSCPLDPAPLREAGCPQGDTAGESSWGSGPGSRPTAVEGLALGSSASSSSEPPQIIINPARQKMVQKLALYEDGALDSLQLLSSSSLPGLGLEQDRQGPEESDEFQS
experimentalProtocol: RBC HotSpot Kinase Assay, IRAK1
testSettings: isolated kinase, 33P-ATP
Recorded IC50, one value per entry.
property: IC50 (µM)

INSERT INTO measurements (compound, property, observedvalue) VALUES
  ('CC1(C)CCNCC1Nc1cccc(-c2cnc3cnc(C(F)F)cn23)n1 (stereo not shown) [Compound 24]', 'IC50', 0.236),
  ('CC(O)(c1cn2c(-c3cccc(N[C@H]4CNC[C@@H]4F)n3)cnc2cn1)C(F)(F)F (single isomer, unassigned) [Compound 77]', 'IC50', 0.237),
  ('CC(C)(C)c1cn2c(-c3cc(F)cc(N[C@H]4CNCC[C@@H]4F)n3)cnc2cn1 [Compound 124]', 'IC50', 0.143),
  ('CC(C)(C)c1cn2c(-c3cccc(N[C@H]4CNC[C@@H]4F)n3)cnc2cn1 [Compound 128]', 'IC50', 0.108),
  ('CC(C)(O)Cn1cc(-c2cn3c(-c4cccc(N[C@H]5CNC[C@@H]5F)n4)cnc3cn2)cn1 [Compound 54]', 'IC50', 2.29),
  ('F[C@H]1CCNC[C@@H]1Nc1cccc(-c2cnc3cnc(C4CC4)cn23)n1 [Compound 51]', 'IC50', 0.08),
  ('FC(F)COc1cn2c(-c3cccc(N[C@H]4CNC[C@@H]4F)n3)cnc2cn1 [Compound 58]', 'IC50', 0.117),
  ('FC(F)c1cn2c(-c3cccc(N[C@H]4CNCC45CC5)n3)cnc2cn1 [Compound 20]', 'IC50', 0.15),
  ('O=C1CCCN1c1cn2c(-c3cccc(N[C@H]4CNCC[C@@H]4F)n3)cnc2cn1 [Compound 119]', 'IC50', 0.11),
  ('CC1(C)CCNCC1Nc1cccc(-c2cnc3cnccn23)n1 (stereo not shown) [Compound 74]', 'IC50', 4.78),
  ('CC1(c2cn3c(-c4cccc(N[C@@H]5CCCNC5)n4)cnc3cn2)CC1 [Compound 2]', 'IC50', 0.067),
  ('CC(O)(c1cn2c(-c3cc(F)cc(N[C@@H]4CCCNC4)n3)cnc2cn1)C(F)(F)F (single isomer, unassigned) [Compound 87]', 'IC50', 0.046),
  ('CC1(C)CC(=O)N(c2cn3c(-c4cccc(N[C@H]5CNC[C@@H]5F)n4)cnc3cn2)C1 [Compound 63]', 'IC50', 3.43),
  ('CC(C)(C)c1cn2c(-c3nc(N[C@H]4CNC[C@@H]4F)c(F)cc3F)cnc2cn1 [Compound 125]', 'IC50', 0.051),
  ('C[C@H]1CNC[C@@H]1Nc1cccc(-c2cnc3cnc(C(C)(C)O)cn23)n1 [Compound 29]', 'IC50', 0.273),
  ('CC(C)(O)Cn1cc(-c2cn3c(-c4cccc(N[C@@H]5CCCNC5)n4)cnc3cn2)cn1 [Compound 46]', 'IC50', 3.64),
  ('FC(F)c1cn2c(-c3cccc(N[C@H]4CNCCC4(F)F)n3)cnc2cn1 [Compound 26]', 'IC50', 0.103),
  ('CC1(c2cn3c(-c4cccc(N[C@H]5CNC[C@@H]5C(F)(F)F)n4)cnc3cn2)CC1 [Compound 4]', 'IC50', 0.451),
  ('FC(F)(F)C1(c2cn3c(-c4cccc(N[C@@H]5CCNC5)n4)cnc3cn2)CC1 [Compound 10]', 'IC50', 0.155),
  ('FC(F)c1cn2c(-c3cccc(N[C@H]4CNCC4(F)F)n3)cnc2cn1 [Compound 23]', 'IC50', 0.185),
  ('CC(C)(C)c1cn2c(-c3nc(N[C@H]4CNCC[C@@H]4F)c(F)cc3F)cnc2cn1 [Compound 127]', 'IC50', 0.06),
  ('CC(O)(c1cn2c(-c3cccc(N[C@H]4CNCC[C@@H]4F)n3)cnc2cn1)C(F)(F)F (single isomer, unassigned) [Compound 82]', 'IC50', 0.016),
  ('F[C@H]1CNC[C@@H]1Nc1cccc(-c2cnc3cnc(C4CC4)cn23)n1 [Compound 50]', 'IC50', 0.113),
  ('C[C@@H]1CNC[C@H](Nc2cccc(-c3cnc4cnc(C5(C(F)(F)F)CC5)cn34)n2)C1 [Compound 15]', 'IC50', 0.736),
  ('O=C1CCCN1c1cn2c(-c3nc(N[C@H]4CNC[C@@H]4F)c(F)cc3F)cnc2cn1 [Compound 109]', 'IC50', 0.052),
  ('FC(F)c1cn2c(-c3cccc(N[C@@H]4CCNC4)n3)cnc2cn1 [Compound 18]', 'IC50', 0.082),
  ('O=S1(=O)CCCN1c1cn2c(-c3nc(N[C@H]4CNC[C@@H]4F)c(F)cc3F)cnc2cn1 [Compound 105]', 'IC50', 0.022),
  ('CC(O)(c1cn2c(-c3nc(N[C@H]4CNC[C@@H]4F)c(F)cc3F)cnc2cn1)C(F)(F)F (single isomer, unassigned) [Compound 91]', 'IC50', 0.04),
  ('CC(O)(c1cn2c(-c3cc(F)cc(N[C@@H]4CCCNC4)n3)cnc2cn1)C(F)(F)F (single isomer, unassigned) [Compound 85]', 'IC50', 0.106),
  ('CC(C)(C)c1cn2c(-c3nc(N[C@@H]4CCCNC4)c(F)cc3F)cnc2cn1 [Compound 126]', 'IC50', 0.08),
  ('FC(F)c1cn2c(-c3cccc(N[C@H]4CNC[C@@H]4F)n3)cnc2cn1 [Compound 16]', 'IC50', 0.06);
